system: Danio rerio Tg(wt1b:EGFP) embryo, pronephros; assay: glomerular width (mean of left and right), fold change vs DMSO control; higher = wider glomerulus; settings: 25 µM; exposure: 24-48 hpf
Structures can show the parent of a compound that is named as a salt.
For each of the compounds below, state its glomerular width.

Task: Look at this compound and give its reported glomerular width. Cc1c(Nc2ncccc2C(=O)O)cccc1C(F)(F)F
Result: 0.491

Task: Look at this compound and give its reported glomerular width. CC(=O)c1ccc2c(c1)N(CCCN(C)C)c1ccccc1S2 [Acetopromazine maleate salt]
Result: 0.924

Task: Look at this compound and give its reported glomerular width. CNCCCC1c2ccccc2C=Cc2ccccc21 [Protriptyline hydrochloride]
Result: 1.07

Task: Look at this compound and give its reported glomerular width. COc1ccnc(C[S+]([O-])c2nc3cc(OC(F)F)ccc3[nH]2)c1OC (stereo not given) [Pantoprazole sodium]
Result: 1.04

Task: Look at this compound and give its reported glomerular width. CN(C)CCC[C@@]1(c2ccc(F)cc2)OCc2cc(C#N)ccc21 [Escitalopram oxalate]
Result: 0.978

Task: Look at this compound and give its reported glomerular width. CC(=O)N[C@@H](CC(C)C)C(=O)O
Result: 1.08

Task: Look at this compound and give its reported glomerular width. COC(=O)Nc1nc2cc(Sc3ccccc3)ccc2[nH]1
Result: 0.568

Task: Look at this compound and give its reported glomerular width. COc1cc(Cc2cnc(N)nc2N)cc(OC)c1OC
Result: 0.986

Task: Look at this compound and give its reported glomerular width. Cc1cnc(C(=O)O)c[n+]1[O-]
Result: 1.01

Task: Look at this compound and give its reported glomerular width. CN(C)c1nc(N(C)C)nc(N(C)C)n1
Result: 0.923

====

For each of the molecules below, state its pronephric angle neck segment.
tested on: Danio rerio Tg(wt1b:EGFP) embryo, pronephros; assay: pronephric angle neck segment to proximal convoluted tubule (mean of left and right), fold change vs DMSO control; higher = larger pronephric angle; details: 25 µM; exposure: 24-48 hpf
Counter-ions that a name gives are not always drawn.
Respond with the number and no other words.

Task: Look at this molecule and give its reported pronephric angle neck segment. CC(CNC1CCCCC1)OC(=O)c1ccccc1 (stereo not given) [Hexylcaine hydrochloride]
Result: 1.09

Task: Look at this molecule and give its reported pronephric angle neck segment. Cc1c(OCC(F)(F)F)ccnc1C[S+]([O-])c1nc2ccccc2[nH]1 (stereo not given)
Result: 1.17

Task: Look at this molecule and give its reported pronephric angle neck segment. Cc1cc(C)nc(NS(=O)(=O)c2ccc(N)cc2)n1 [Sulfamethazine sodium salt]
Result: 1.01

Task: Look at this molecule and give its reported pronephric angle neck segment. CC[C@H]1OC(=O)[C@H](C)[C@@H](O[C@H]2C[C@@](C)(OC)[C@@H](O)[C@H](C)O2)[C@H](C)[C@@H](O[C@@H]2O[C@H](C)C[C@H](N(C)C)[C@H]2O)[C@](C)(O)C[C@@H](C)[C@@H]2N[C@@H](COCCOC)O[C@H]([C@H]2C)[C@]1(C)O
Result: 0.981

Task: Look at this molecule and give its reported pronephric angle neck segment. c1cnc(N2CCN(Cc3ccc4c(c3)OCO4)CC2)nc1 [Piribedil hydrochloride]
Result: 1.01

====

system: Danio rerio Tg(wt1b:EGFP) embryo, pronephros; assay: glomerular width (mean of left and right), fold change vs DMSO control; higher = wider glomerulus; settings: 25 µM; exposure: 24-48 hpf
Counter-ions that a name gives are not always drawn.
For each of the molecules below, state its glomerular width.
Respond with the number and no other words.

Task: Look at this molecule and give its reported glomerular width. CC[N+](CC)(CC)CCOc1cccc(OCC[N+](CC)(CC)CC)c1OCC[N+](CC)(CC)CC [Gallamine triethiodide]
Result: 1.03

Task: Look at this molecule and give its reported glomerular width. CC(c1cc2ccccc2s1)N(O)C(N)=O (configuration not stated) [Zileuton]
Result: 0.993

Task: Look at this molecule and give its reported glomerular width. CCC(C)(C)c1ccc(CC(C)CN2C[C@@H](C)O[C@@H](C)C2)cc1 (some centres not stated) [Amorolfine hydrochloride]
Result: 0.987

Task: Look at this molecule and give its reported glomerular width. CC(=O)OCC(=O)NCCCOc1cccc(CN2CCCCC2)c1 [Roxatidine Acetate hydrochloride]
Result: 1

Task: Look at this molecule and give its reported glomerular width. O=C(COc1ccc(Cl)cc1)N1CCN(Cc2ccc3c(c2)OCO3)CC1 [Fipexide hydrochloride]
Result: 0.86

Task: Look at this molecule and give its reported glomerular width. CN(C)CCn1nnnc1SCC1=C(C(=O)O)N2C(=O)[C@@H](NC(=O)Cc3csc(N)n3)[C@H]2SC1 [Cefotiam hydrochloride]
Result: 0.929

Task: Look at this molecule and give its reported glomerular width. COc1ccc(OC)c(C(O)CNC(=O)CN)c1 (configuration not stated) [Midodrine hydrochloride]
Result: 1.2

Task: Look at this molecule and give its reported glomerular width. COCCOC(=O)C1=C(C)NC(C)=C(C(=O)OC(C)C)C1c1cccc([N+](=O)[O-])c1 (configuration not stated) [Nimodipine]
Result: 0.786

Task: Look at this molecule and give its reported glomerular width. Cc1cccc(Nc2ccccc2C(=O)O)c1C [Mefenamic acid]
Result: 0.617

Task: Look at this molecule and give its reported glomerular width. C=C1C[C@H]2[C@@H]3C=C(C)C4=CC(=O)CC[C@]4(C)[C@H]3CC[C@]2(C)[C@@]1(OC(C)=O)C(C)=O [Melengestrol acetate]
Result: 1.07

Task: Look at this molecule and give its reported glomerular width. c1ccc(C2CN3CCSC3=N2)cc1 (configuration not stated) [Tetramisole hydrochloride]
Result: 1.05

Task: Look at this molecule and give its reported glomerular width. CCC1=C(C)CN(C(=O)NCCc2ccc(S(=O)(=O)NC(=O)N[C@H]3CC[C@H](C)CC3)cc2)C1=O [Glimepiride]
Result: 1.02

Task: Look at this molecule and give its reported glomerular width. CCc1nn(CCCN2CCN(c3cccc(Cl)c3)CC2)c(=O)n1CCOc1ccccc1 [Nefazodone hydrochloride]
Result: 1.05

Task: Look at this molecule and give its reported glomerular width. CCOC(=O)/C=C(C)/C=C/C=C(C)/C=C/c1c(C)cc(OC)c(C)c1C [Etretinate]
Result: 0.831

Task: Look at this molecule and give its reported glomerular width. C=CCOc1ccccc1OCC(O)CNC(C)C (configuration not stated) [Oxprenolol hydrochloride]
Result: 1

Task: Look at this molecule and give its reported glomerular width. CCOC(=O)OC(C)OC1=C(C(=O)Nc2ccccn2)N(C)S(=O)(=O)c2ccccc21 (configuration not stated) [Ampiroxicam]
Result: 1.1

Task: Look at this molecule and give its reported glomerular width. CC(C(O)c1ccc(O)cc1)N1CCC(Cc2ccccc2)CC1 (configuration not stated) [Ifenprodil tartrate]
Result: 1.04

====

tested on: Danio rerio Tg(wt1b:EGFP) embryo, pronephros; assay: pronephric angle neck segment to proximal convoluted tubule (mean of left and right), fold change vs DMSO control; higher = larger pronephric angle; details: 25 µM; exposure: 24-48 hpf
Counter-ions that a name gives are not always drawn.
For each of the compounds below, state its pronephric angle neck segment.
Respond with the number and no other words.

Task: Look at this compound and give its reported pronephric angle neck segment. CC(=O)OCC(CCn1cnc2cnc(N)nc21)COC(C)=O [Famciclovir]
Result: 0.978

Task: Look at this compound and give its reported pronephric angle neck segment. COc1ccnc(C[S+]([O-])c2nc3cc(OC(F)F)ccc3[nH]2)c1OC (configuration not stated) [Pantoprazole sodium]
Result: 1.06

Task: Look at this compound and give its reported pronephric angle neck segment. Cc1cc(/C=C/c2ccc3cc(N(C)C)ccc3[n+]2C)c(C)n1-c1ccccc1 [Pyrvinium pamoate]
Result: 1.02

Task: Look at this compound and give its reported pronephric angle neck segment. Cc1ncc([N+](=O)[O-])n1CCO [Metronidazole]
Result: 0.884

Task: Look at this compound and give its reported pronephric angle neck segment. CN(CCOc1ccc(NS(C)(=O)=O)cc1)CCc1ccc(NS(C)(=O)=O)cc1 [Dofetilide]
Result: 1.01

Task: Look at this compound and give its reported pronephric angle neck segment. COc1ccc(/C=C/C(=O)Nc2ccccc2C(=O)O)cc1OC [Tranilast]
Result: 1.14

Task: Look at this compound and give its reported pronephric angle neck segment. COC(=O)Nc1nc2cc(C(=O)c3ccc(F)cc3)ccc2[nH]1 [Flubendazol]
Result: 1.11

Task: Look at this compound and give its reported pronephric angle neck segment. CNCCC=C1c2ccccc2CCc2ccccc21 [Nortriptyline hydrochloride]
Result: 1.03

Task: Look at this compound and give its reported pronephric angle neck segment. C[N+]1(CCCCC[N+]2(C)CCCC2)CCCC1 [Pentolinium bitartrate]
Result: 1.05

Task: Look at this compound and give its reported pronephric angle neck segment. C=C1C[C@H]2[C@@H]3C=C(C)C4=CC(=O)CC[C@]4(C)[C@H]3CC[C@]2(C)[C@@]1(OC(C)=O)C(C)=O [Melengestrol acetate]
Result: 1.02

Task: Look at this compound and give its reported pronephric angle neck segment. CC(=O)[C@@]12O[C@](C)(c3ccccc3)O[C@@H]1C[C@H]1[C@@H]3CCC4=CC(=O)CC[C@]4(C)[C@H]3CC[C@@]12C [Algestone acetophenide]
Result: 1.02

Task: Look at this compound and give its reported pronephric angle neck segment. COc1ccc(C(Cl)=C(c2ccc(OC)cc2)c2ccc(OC)cc2)cc1 [Chlorotrianisene]
Result: 0.953

Task: Look at this compound and give its reported pronephric angle neck segment. CCCCOC(=O)c1ccc(O)cc1 [Butylparaben]
Result: 1.11

Task: Look at this compound and give its reported pronephric angle neck segment. N=C(N)NC(=O)c1nc(Cl)c(N)nc1N [Amiloride hydrochloride dihydrate]
Result: 0.985

Task: Look at this compound and give its reported pronephric angle neck segment. COc1cc(NC(C)CCCN)c2ncccc2c1 (configuration not stated) [Primaquine diphosphate]
Result: 1.01

Task: Look at this compound and give its reported pronephric angle neck segment. C[C@@H]1CN(c2c(F)c(N)c3c(=O)c(C(=O)O)cn(C4CC4)c3c2F)C[C@H](C)N1 [Sparfloxacin]
Result: 1.04

Task: Look at this compound and give its reported pronephric angle neck segment. CN(Cc1cc(Br)cc(Br)c1N)C1CCCCC1 [Bromhexine hydrochloride]
Result: 1
